assay: small molecules boosting NK-mediated OVCAR3 lysis – imaging, primary NK cells, calcein-AM imaging, primary screen (AID 1508625); conditions: OVCAR3 lysis by primary NK cells, at 5 µM;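 note: compound given to NK cells 16 h before adding targets at 1.5 to 1 ratio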
Readout Kind: corrected activity, negative = more killing (%)
Kindly provide the numeric value in % only, without the unit symbol.

# Molecule, Result Value
measured = [
    ("COc1ccccc1C(=O)CC1(O)C(=O)Nc2ccccc21 (centres undefined)", -4.9),
    ("COc1ccc(CNC(=O)CSc2nc3cc(Cl)ccc3s2)cc1", -1.73),
    ("CC(=O)Nc1ccc(S(=O)(=O)NCc2ccc(C(=O)O)cc2)cc1", -5.84),
]

Challenge: Need corrected activity, negative = more killing, item COc1ccc(C(O)=C2C(=O)C(=O)N(c3ccccn3)C2c2ccc(C(C)C)cc2)cc1 (centres undefined)
Response given: -1.15

----------
test: small molecules boosting NK-mediated OVCAR3 lysis – imaging, primary NK cells, calcein-AM imaging, primary screen (AID 1508625); conditions: OVCAR3 lysis by primary NK cells, at 5 µM;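 note: compound given to NK cells 16 h before adding targets at 1.5 to 1 ratio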
Readout Kind: corrected activity, negative = more killing (%)
Form entry: value (%) — number only.

Please review the entries below; each comes with its answer.
# Molecule, Unit Of Measure, Result Value
records = [
    ("Clc1ccccc1[C@@H]1Nc2ccccc2[C@@H]2C=CC[C@@H]21", "%", -1.75),
    ("COc1ccc2cc3cc(C(=O)N(C)c4cc(C)ccc4C)oc3nc2c1", "%", -6.86),
    ("CCCc1cc(=O)oc2cc3oc4c(c3cc12)CCCC4", "%", -1.47),
    ("O=C(O)c1ccc(S(=O)(=O)c2ccc3c(c2)C(=O)N(CC2CCCO2)C3=O)cc1 (configuration not stated)", "%", 0.388),
    ("C#CCN1C(=O)C(O)(CC(=O)c2ccc(OC)c(OC)c2)c2cc(Br)ccc21 (configuration not stated)", "%", -5.04),
    ("O=[N+]([O-])c1ccc(N2CCCCC2)cc1NCCc1ccccc1", "%", -2.78),
]

Okay, next one:
Challenge: # input molecule: O=C1C(=O)N(CCCN2CCOCC2)C(c2ccco2)C1=C(O)c1ccc(F)cc1 (configuration not stated) ; wanted: its corrected activity, negative = more killing
Response given: -4.3

----------
test: small molecules boosting NK-mediated OVCAR3 lysis – imaging, primary NK cells, calcein-AM imaging, primary screen (AID 1508625); conditions: OVCAR3 lysis by primary NK cells, at 5 µM; measured here: robust Z-score, single-point normalisation;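 note: compound given to NK cells 16 h before adding targets at 1.5 to 1 ratio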;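 for Z-score: more negative robust z means stronger NK killing of tumor cells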
Is z-score at least -1? Then Condition met. If not, Condition not met.

Below are worked cases with known answers.
# Compound, Class Label
data = [
    ("COc1ccc(OC)c(C2NC(=S)NC(C)=C2C(=O)Nc2ccccc2)c1 (configuration not stated)", "Condition met"),
    ("O=C(NCCc1ccccc1Cl)C1CC(=O)N(C2CCCCC2)C1 (configuration not stated)", "Condition not met"),
    ("CC(=O)c1cccc(NC(=O)COc2ccccc2C)c1", "Condition met"),
    ("COc1ccc(-c2ccc3c(N)c(C(=O)Nc4ccc(C(C)=O)cc4)sc3n2)cc1", "Condition not met"),
]

Challenge: Determine whether this compound has z-score no lower than -1: CCCc1c(C)c2cc3c(C)coc3cc2oc1=O
Response given: Condition not met

Challenge: Identify whether the reported z-score of the following compound is -1 or greater: CCc1cc(=O)oc2c(C)c(OCC(=O)c3cccc(OC)c3)ccc12
Response given: Condition not met

Challenge: Could you tell me if the measured z-score of COC(=O)c1conc1-c1ccccc1OC reaches -1 or more?
Response given: Condition not met

Challenge: Reported z-score at or above -1? O=C(CCCC(=O)Nc1cccc(Cl)c1)Nc1cccc(Cl)c1
Response given: Condition met

Challenge: Please check the record O=C(O)c1cccc(N2C(=O)c3ccc(C(=O)c4ccc5c(c4)C(=O)N(c4cccc(C(=O)O)c4)C5=O)cc3C2=O)c1 and state if its z-score is at or above -1.
Response given: Condition met
